# Tested on: HOP-62 multicell spheroids with HUVEC/MSC, viability
# experimental protocol: Anticancer human tumor HOP-62 cell line growth inhibition [KRAS2];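 also: viability read after a week of compound exposure; 100% = DMSO vehicle-treated spheroids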
# test parameters: second compound 0.1 µM; first compound 3.16 µM; active compounds read low
# reported viability, T/C; entries follow

- compound: "Cn1nccc1Nc1nccc(-c2cc3c(s2)C(C)(C)N(CCN2CCOCC2)C3=O)n1 + C=CC(=O)N1CCN(c2nc(=O)n(-c3c(C)ccnc3C(C)C)c3nc(-c4c(O)cccc4F)c(F)cc23)C(C)C1"
  viability, T/C (%): 16.5
- compound: "COC(=O)c1ccc2c(C(=Nc3ccc(N(C)C(=O)CN4CCN(C)CC4)cc3)c3ccccc3)c(O)[nH]c2c1 + CC1OCC2(CCN(c3cnc(Sc4ccnc(N)c4Cl)c(N)n3)CC2)C1N"
  viability, T/C (%): 25.5
- compound: "CC(C)NCC(C(=O)N1CCN(c2ncnc3c2C(C)CC3O)CC1)c1ccc(Cl)cc1 (stereo not given) + C=CC(=O)N1CCN(c2nc(OCC3CCCN3C)nc3c2CCN(c2cccc4cccc(C)c24)C3)CC1CC#N"
  viability, T/C (%): 6.16
- compound: "CCNC(=O)CC1N=C(c2ccc(Cl)cc2)c2cc(OC)ccc2-n2c(C)nnc21 (stereo not given) + C=CC(=O)N1CCN(c2nc(=O)n(-c3c(C)ccnc3C(C)C)c3nc(-c4c(O)cccc4F)c(F)cc23)C(C)C1"
  viability, T/C (%): 19.3
- compound: "CC1COCCN1c1cc(-c2ccnn2C)c2ccnc(-c3ccn[nH]3)c2n1 (stereo not given) + C=CC(=O)N1CCN(c2nc(OCC3CCCN3C)nc3c2CCN(c2cccc4cccc(C)c24)C3)CC1CC#N"
  viability, T/C (%): 10

###

# reported viability, T/C; entries follow
# Tested on: HOP-62 multicell spheroids with HUVEC/MSC, viability
# experimental protocol: Anticancer human tumor HOP-62 cell line growth inhibition [KRAS2];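 also: viability read after a week of compound exposure; 100% = DMSO vehicle-treated spheroids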
# test parameters: second compound 0.1 µM; first compound 0.316 µM; active compounds read low
# Source text: Multicellular complex tumor spheroid response to RAS pathway inhibitors in combination with a targeted agents in patient-derived cell lines with oncogenic KRAS variants from multiple cancer types A high-throughput screen of multi-cell type tumor spheroids was designed to identify active combinations of targeted small molecules and KRAS pathway inhibitors. […] Compounds. […] If the clinical Cmax for an agent had not been determined, the highest concentration tested was 10 microM. […]

- compound: "CC(C)NCC(C(=O)N1CCN(c2ncnc3c2C(C)CC3O)CC1)c1ccc(Cl)cc1 (stereo not given) + CC1OCC2(CCN(c3cnc(Sc4ccnc(N)c4Cl)c(N)n3)CC2)C1N"
  viability, T/C, %: 53.5
- compound: "CC1(C)CCC(CN2CCN(c3ccc(C(=O)NS(=O)(=O)c4ccc(NCC5CCOCC5)c([N+](=O)[O-])c4)c(Oc4cnc5[nH]ccc5c4)c3)CC2)=C(c2ccc(Cl)cc2)C1 + CC1OCC2(CCN(c3cnc(Sc4ccnc(N)c4Cl)c(N)n3)CC2)C1N"
  viability, T/C, %: 70
- compound: "CC1(C)CCC(CN2CCN(c3ccc(C(=O)NS(=O)(=O)c4ccc(NCC5CCOCC5)c([N+](=O)[O-])c4)c(Oc4cnc5[nH]ccc5c4)c3)CC2)=C(c2ccc(Cl)cc2)C1 + CNCc1ccccc1-c1csc(C(C)Nc2nc(C)nc3cc(OC)c(OC)cc23)c1"
  viability, T/C, %: 82.5
- compound: "COc1cc2nccc(Oc3ccc(NC(=O)C4(C(=O)Nc5ccc(F)cc5)CC4)cc3)c2cc1OC + C=CC(=O)N1CCN(c2nc(=O)n(-c3c(C)ccnc3C(C)C)c3nc(-c4c(O)cccc4F)c(F)cc23)C(C)C1"
  viability, T/C, %: 53.9
- compound: "CCN1CCN(Cc2ccc(Nc3ncc(F)c(-c4cc(F)c5nc(C)n(C(C)C)c5c4)n3)nc2)CC1 + C=CC(=O)N1CCN(c2nc(=O)n(-c3c(C)ccnc3C(C)C)c3nc(-c4c(O)cccc4F)c(F)cc23)C(C)C1"
  viability, T/C, %: 51.3
- compound: "COc1cc2nccc(Oc3ccc(NC(=O)C4(C(=O)Nc5ccc(F)cc5)CC4)cc3)c2cc1OC + COc1cc2nc(C)nc(NC(C)c3cc(N)cc(C(F)(F)F)c3)c2cc1OC1CCOC1"
  viability, T/C, %: 113
- compound: "CCN1CCN(Cc2ccc(Nc3ncc(F)c(-c4cc(F)c5nc(C)n(C(C)C)c5c4)n3)nc2)CC1 + COc1cc2nc(C)nc(NC(C)c3cc(N)cc(C(F)(F)F)c3)c2cc1OC1CCOC1"
  viability, T/C, %: 73.8
- compound: "CC(=O)OC12COC1CC(O)C1(C)C(=O)C(O)C3=C(C)C(OC(=O)C(O)C(NC(=O)OC(C)(C)C)c4ccccc4)CC(O)(C(OC(=O)c4ccccc4)C21)C3(C)C (stereo not given) + CNCc1ccccc1-c1csc(C(C)Nc2nc(C)nc3cc(OC)c(OC)cc23)c1"
  viability, T/C, %: 35
- compound: "COc1cc2nccc(Oc3ccc(NC(=O)C4(C(=O)Nc5ccc(F)cc5)CC4)cc3)c2cc1OC + C=CC(=O)N1CCN(c2nc(OCC3CCCN3C)nc3c2CCN(c2cccc4cccc(C)c24)C3)CC1CC#N"
  viability, T/C, %: 49.5
- compound: "O=C(c1cc(Cc2n[nH]c(=O)c3ccccc23)ccc1F)N1CCN(C(=O)C2CC2)CC1 + COc1cc2nc(C)nc(NC(C)c3cc(N)cc(C(F)(F)F)c3)c2cc1OC1CCOC1"
  viability, T/C, %: 106

###

# Test system: HOP-62 multicell spheroids with HUVEC/MSC, viability
# experimental protocol: Anticancer human tumor HOP-62 cell line growth inhibition [KRAS2];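 also: viability read after a week of compound exposure; 100% = DMSO vehicle-treated spheroids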
# test parameters: second compound 0.1 µM; first compound 3.16 µM; active compounds read low
experimental endpoint: viability, T/C

- molecule: "COc1cc2nccc(Oc3ccc(NC(=O)C4(C(=O)Nc5ccc(F)cc5)CC4)cc3)c2cc1OC + C=CC(=O)N1CCN(c2nc(=O)n(-c3c(C)ccnc3C(C)C)c3nc(-c4c(O)cccc4F)c(F)cc23)C(C)C1"
  recorded result: "41.3%"
- molecule: "Cn1nccc1Nc1nccc(-c2cc3c(s2)C(C)(C)N(CCN2CCOCC2)C3=O)n1 + CNCc1ccccc1-c1csc(C(C)Nc2nc(C)nc3cc(OC)c(OC)cc23)c1"
  recorded result: "34.6%"
- molecule: "O=C(c1cc(Cc2n[nH]c(=O)c3ccccc23)ccc1F)N1CCN(C(=O)C2CC2)CC1 + C=CC(=O)N1CCN(c2nc(OCC3CCCN3C)nc3c2CCN(c2cccc4cccc(C)c24)C3)CC1CC#N"
  recorded result: "29%"
- molecule: "COc1cc(Nc2ncc3c(n2)-c2ccc(Cl)cc2C(c2c(F)cccc2OC)=NC3)ccc1C(=O)O + C=CC(=O)N1CCN(c2nc(=O)n(-c3c(C)ccnc3C(C)C)c3nc(-c4c(O)cccc4F)c(F)cc23)C(C)C1"
  recorded result: "23.3%"
- molecule: "CC(=O)OC12COC1CC(O)C1(C)C(=O)C(O)C3=C(C)C(OC(=O)C(O)C(NC(=O)OC(C)(C)C)c4ccccc4)CC(O)(C(OC(=O)c4ccccc4)C21)C3(C)C (stereo not given) + CC1OCC2(CCN(c3cnc(Sc4ccnc(N)c4Cl)c(N)n3)CC2)C1N"
  recorded result: "40.1%"

###

# reported viability, T/C; entries follow
# Test system: HOP-62 multicell spheroids with HUVEC/MSC, viability
# experimental protocol: Anticancer human tumor HOP-62 cell line growth inhibition [KRAS2];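 also: viability read after a week of compound exposure; 100% = DMSO vehicle-treated spheroids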
# test parameters: compound 0.1 µM; active compounds read low

- compound: "CC(C)n1nc(-c2ccc3oc(N)nc3c2)c2c(N)ncnc21"
  viability, T/C: "18.1% [middle of 5 runs]"
- compound: "CC1(C)CCC(CN2CCN(c3ccc(C(=O)NS(=O)(=O)c4ccc(NCC5CCOCC5)c([N+](=O)[O-])c4)c(Oc4cnc5[nH]ccc5c4)c3)CC2)=C(c2ccc(Cl)cc2)C1"
  viability, T/C: "98.4% [middle of 5 runs]"
- compound: "CN(C)C/C=C/C(=O)Nc1cc2c(Nc3ccc(F)c(Cl)c3)ncnc2cc1O[C@H]1CCOC1"
  viability, T/C: "102% [middle of 5 runs]"
- compound: "O=C(c1cc(Cc2n[nH]c(=O)c3ccccc23)ccc1F)N1CCN(C(=O)C2CC2)CC1"
  viability, T/C: "102% [middle of 5 runs]"
- compound: "CC(C)NCC(C(=O)N1CCN(c2ncnc3c2C(C)CC3O)CC1)c1ccc(Cl)cc1 (stereo not drawn)"
  viability, T/C: "104% [middle of 5 runs]"
- compound: "CCN1CCN(Cc2ccc(Nc3ncc(F)c(-c4cc(F)c5nc(C)n(C(C)C)c5c4)n3)nc2)CC1"
  viability, T/C: "98.1% [middle of 5 runs]"
- compound: "Cn1ncnc1[C@H]1c2n[nH]c(=O)c3cc(F)cc(c23)N[C@@H]1c1ccc(F)cc1"
  viability, T/C: "85.3% [middle of 5 runs]"
- compound: "CNCc1ccccc1-c1csc(C(C)Nc2nc(C)nc3cc(OC)c(OC)cc23)c1 (stereo not drawn)"
  viability, T/C: "99.2% [middle of 17 runs]"
- compound: "CC(=O)OC12COC1CC(O)C1(C)C(=O)C(O)C3=C(C)C(OC(=O)C(O)C(NC(=O)OC(C)(C)C)c4ccccc4)CC(O)(C(OC(=O)c4ccccc4)C21)C3(C)C (stereo not drawn)"
  viability, T/C: "36.1% [middle of 5 runs]"
- compound: "CC1OCC2(CCN(c3cnc(Sc4ccnc(N)c4Cl)c(N)n3)CC2)C1N (stereo not drawn)"
  viability, T/C: "92.2% [middle of 19 runs]"
- compound: "COC(=O)c1ccc2c(C(=Nc3ccc(N(C)C(=O)CN4CCN(C)CC4)cc3)c3ccccc3)c(O)[nH]c2c1"
  viability, T/C: "77.7% [middle of 5 runs]"
- compound: "CCNC(=O)CC1N=C(c2ccc(Cl)cc2)c2cc(OC)ccc2-n2c(C)nnc21 (stereo not drawn)"
  viability, T/C: "90% [middle of 5 runs]"
- compound: "Cn1nccc1Nc1nccc(-c2cc3c(s2)C(C)(C)N(CCN2CCOCC2)C3=O)n1"
  viability, T/C: "103% [middle of 5 runs]"
